target: hNTS2 receptor (Homo sapiens, UniProt O95665)
Construct: membranes prepared from them
Sequence (O95665 whole entry): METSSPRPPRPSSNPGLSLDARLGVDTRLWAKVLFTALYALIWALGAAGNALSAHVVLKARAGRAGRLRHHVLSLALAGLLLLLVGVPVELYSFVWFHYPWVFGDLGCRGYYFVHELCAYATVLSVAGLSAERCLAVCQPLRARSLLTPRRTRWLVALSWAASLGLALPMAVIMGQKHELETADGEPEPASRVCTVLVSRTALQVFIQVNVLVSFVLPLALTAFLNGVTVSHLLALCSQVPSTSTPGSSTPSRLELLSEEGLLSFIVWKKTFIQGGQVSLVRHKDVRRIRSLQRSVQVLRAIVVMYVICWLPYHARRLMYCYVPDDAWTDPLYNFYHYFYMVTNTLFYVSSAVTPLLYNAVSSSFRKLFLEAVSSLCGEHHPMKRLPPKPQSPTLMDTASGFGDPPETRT
runDescription: Competitive radioligand binding assay on the hNTS2 receptor
recordedConditions: ratio IC50 for NTS1 : IC50 for NTS2
Where a SMILES comes first, the peptide text is derived from it. Bridges are numbered along the chain shown (N, C = ends). [ ]: non-standard residue; d: D form. Phe(4-Cl) = N[C@@H](Cc1ccc(Cl)cc1)C(=O)O; AllylGly = C=CC[C@H](N)C(=O)O
Kindly state Selectivity for each of the entries shown.

(Q) State its Selectivity for this compound: CC(C)C[C@H](NC(=O)[C@H](Cc1ccc(Cl)cc1)NC(=O)[C@@H]1CC=CC[C@H](N)C(=O)N[C@@H](CCCCN)C(=O)N[C@@H](CCCCN)C(=O)N1)C(=O)O [compound 114, c[G(All)KKG(All)]F(4-chloro)L] (H-[AllylGly]KK[AllylGly][Phe(4-Cl)]L-OH; staple 1-4)
(A) >2466

(Q) State its Selectivity for this compound: CC(C)C[C@H](NC(=O)[C@H](Cc1ccc(O)cc1)NC(=O)C1(C)CCCC=CCCC(=O)N[C@@H](CCCCN)C(=O)N[C@@H](CCCCN)C(=O)N1)C(=O)O (some centres unmarked)
(A) 733
